FYI, the data here is from patent US20210292392A1.

# Neutralizing activity (%) Mean at 5.555555 µg/ml values compiled below
# study-target: full length spike (S) protein of SARS-CoV-2 (SARS-CoV-2, UniProt P0DTC2 14-1273)
# experimental-details: cell-based or functional assay
parameter-measured: Neutralizing activity (%) Mean at 5.555555 µg/ml

[
  {
    "binder": "P2A-1B3 (antibody, V domains shown) VH: EVQLVESGGGLVQPGGSLRLSCVASGFSFNRYSMNWLRQTPRKGLEWLSYISASGNTIYYADSVRGRFTTSRDNAKNTLYLQMNSLRDDDTAVYFCARPAMVREGTYNWFDPWGQGTLVTVSS VL: EIVLTQSPGTLSLSPGERATLSCRASQSVSNDYLAWYQQKPGQAPRLLIYYASSRATGIPDRFSGSGSGTDFTLTISRLEPGDSAVYYCQQYGDSPPITFGQGTRLEIKR",
    "quantity-unit": "%",
    "assay-result": 37.2
  },
  {
    "binder": "P2B-2G11 (antibody, V domains shown) VH: EVQLVESGGGLVQPGRSLRLSCAASGFTFDDYAMHWVRQAPGKGLEWVSGISWNGGIIGYADSVKGRFTISRDNAKTSLYLQMNSLKPEDTALYYCAKVAGRGDYDYYYGMDVWGQGTTVTVSS VL: QSVLTQPPSVSGAPGQRVTISCTGSSSNIGAGYDVHWYQQLPGTAPKLLIYGNNNRPSGVPDRFSGSKSGTSASLAITGLQAEDEADYYCQSYDSSLSGSVFGGGTKLTVLG",
    "quantity-unit": "%",
    "assay-result": 19
  },
  {
    "binder": "P2A-1A9 (antibody, V domains shown) VH: EVQLVESGGGLVQPGRSLRLSCAASGFTFDDYAMHWVRQVPGKGLEWVSGISWNGGIIGYADSVKGRFTISRDNAKTSLYLQMNSLRAEDTALYYCAKVAGRGDYDYYYGMDVWGQGTTVTVSS VL: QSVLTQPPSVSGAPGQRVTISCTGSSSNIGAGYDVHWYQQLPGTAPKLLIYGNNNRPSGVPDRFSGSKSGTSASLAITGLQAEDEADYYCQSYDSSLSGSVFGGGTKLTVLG",
    "quantity-unit": "%",
    "assay-result": 34.8
  }
]
